Sourced from patent US20260317324A1

Measured DC50 of individual entries
target_or_test_system: BRAF G466V (Homo sapiens, UniProt P15056, G466V)
Construct: Horizon Discovery (HCT-116 BRAF−/− cells); host or cells: HCT-116 BRAF−/− cells, clone 8, lentiviral transduction
Sequence (P15056 whole entry G466V): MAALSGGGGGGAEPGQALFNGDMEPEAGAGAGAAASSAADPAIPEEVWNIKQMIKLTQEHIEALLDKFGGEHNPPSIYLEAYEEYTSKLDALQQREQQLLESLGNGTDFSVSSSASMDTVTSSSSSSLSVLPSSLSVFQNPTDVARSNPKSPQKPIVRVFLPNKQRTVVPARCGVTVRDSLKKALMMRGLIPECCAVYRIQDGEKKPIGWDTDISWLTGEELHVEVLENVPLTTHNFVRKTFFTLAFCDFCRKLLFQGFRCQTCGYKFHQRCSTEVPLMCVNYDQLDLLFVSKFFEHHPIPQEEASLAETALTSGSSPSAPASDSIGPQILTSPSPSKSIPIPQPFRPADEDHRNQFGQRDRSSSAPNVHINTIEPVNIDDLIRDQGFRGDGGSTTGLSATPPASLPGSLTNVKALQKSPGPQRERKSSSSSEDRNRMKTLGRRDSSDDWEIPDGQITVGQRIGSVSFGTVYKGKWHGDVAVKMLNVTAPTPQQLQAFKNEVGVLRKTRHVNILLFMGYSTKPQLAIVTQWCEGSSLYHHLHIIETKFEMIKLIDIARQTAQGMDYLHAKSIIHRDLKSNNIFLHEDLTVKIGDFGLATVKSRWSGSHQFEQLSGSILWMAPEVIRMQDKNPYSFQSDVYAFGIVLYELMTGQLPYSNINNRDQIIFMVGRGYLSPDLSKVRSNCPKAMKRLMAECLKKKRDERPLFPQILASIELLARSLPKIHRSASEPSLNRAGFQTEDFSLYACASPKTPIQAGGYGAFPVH
test_method_notes: BRAF HiBiT degradation assay, C-terminal HiBiT-tagged BRAF G466V overexpressed in HCT-116 BRAF−/− cells (clone 8), Nano-Glo HiBiT Lytic assay
Format: cell-based
conditions: BRAF G466V (Class 3), HCT-116 BRAF−/− cells; DC50 at 50% degradation

Some solved cases for reference:
compound	measured_endpoint	assay_result
CCCS(=O)(=O)Nc1cccc(-c2nc(C3CCC4(CC3)CCN(CC3CCN(c5ccc(C6CCC(=O)NC6=O)cn5)CC3)CC4)sc2-c2ccnc(N)n2)c1F (racemic) [Compound 260]	DC50	> 500 nM
O=C1CCN(c2ccc(N3CCC(CN4CCN(c5ccc(-n6cc(-c7cc(Cl)cc(NS(=O)(=O)N8CCCC8)c7F)c(-c7ccncc7)n6)cc5)CC4)CC3)nc2)C(=O)N1 [Compound 355]	DC50	< 10 nM
O=C1CC[C@@H](c2ccc(N3CCC(CN4CCN(c5ccc(-n6cc(-c7cc(Cl)cc(NS(=O)(=O)N8CCCC8)c7F)c(-c7ccncc7)n6)cc5)CC4)CC3)cc2F)C(=O)N1 [Compound 384]	DC50	10 to 50 nM
O=C1CC[C@H](c2ccc(N3CCC(CN4CCN(c5ccc(-n6cc(-c7cc(Cl)cc(NS(=O)(=O)N8CC[C@@H](F)C8)c7F)c(-c7ccncc7)n6)c(F)c5)CC4)CC3)cc2)C(=O)N1 [Compound 336]	DC50	< 10 nM
O=C1CCC(c2ccc(N3CCC(CN4CCN(c5ccc(-n6cc(-c7cc(Cl)cc(NS(=O)(=O)N8CCCC8)c7F)c(-c7ccncc7)n6)nc5)CC4)CC3)nc2)C(=O)N1 (racemic) [Compound 288]	DC50	< 10 nM
C[C@@H]1CN(c2ccc(-n3cc(-c4cc(Cl)cc(NS(=O)(=O)N5CC[C@@H](F)C5)c4F)c(-c4ccncc4)n3)cc2)CCN1CC1CCN(c2ccc([C@H]3CCC(=O)NC3=O)cc2)CC1 [Compound 317]	DC50	< 10 nM

Enquiry: # lookup: DC50 of O=C1CC[C@H](c2ccc(N3CCC(CN4CCN(c5ccc(-n6cc(-c7cc(C(F)F)cc(NS(=O)(=O)N8CCCC8)c7F)c(-c7ccncc7)n6)c(F)c5)CC4)CC3)cc2)C(=O)N1 [Compound 362]
Return: < 10 nM

Enquiry: # lookup: DC50 of O=C1CCC(c2ccc(N3CCC(CN4CCN(c5cnc(-n6cc(-c7cc(Cl)cc(NS(=O)(=O)N8CCCC8)c7F)c(-c7ccncc7)n6)nc5)CC4)CC3)nc2)C(=O)N1 (racemic) [Compound 359]
Return: < 10 nM

Enquiry: # lookup: DC50 of CCCS(=O)(=O)Nc1cccc(-c2nc(C3CCC4(CC3)CCN(C(=O)C3CCN(c5ccc(C(=O)NC6CCC(=O)NC6=O)nc5)CC3)CC4)sc2-c2ccnc(N)n2)c1F (racemic) [Compound 252]
Return: > 500 nM

Enquiry: # lookup: DC50 of O=C1CC[C@H](c2ccc(N3CCC(CN4CCN(c5ccc(-n6cc(-c7cc(Cl)cc(NS(=O)(=O)N8CC(F)C8)c7F)c(-c7ccncc7)n6)cc5)CC4)CC3)cc2)C(=O)N1 [Compound 333]
Return: < 10 nM

Enquiry: # lookup: DC50 of O=C1CCN(c2ccc(N3CCC(CN4CCN(c5ccc(-n6cc(-c7cc(Cl)cc(NS(=O)(=O)N8CCCC8)c7F)c(-c7ccncc7)n6)cc5)CC4)CC3)cc2)C(=O)N1 [Compound 283]
Return: < 10 nM

Enquiry: # lookup: DC50 of CCN(C)S(=O)(=O)Nc1cc(Cl)cc(-c2cn(-c3ccc(N4CCN(CC5CCN(c6ccc([C@H]7CCC(=O)NC7=O)cn6)CC5)CC4)cn3)nc2-c2ccncc2)c1F [Compound 314]
Return: 10 to 50 nM

Enquiry: # lookup: DC50 of O=C1CC[C@H](c2ccc(N3CCC(CN4CCN(c5ccc(-n6cc(-c7cc(Cl)cc(NS(=O)(=O)N8CCCC8)c7F)c(-c7ccncc7)n6)c(F)c5)CC4)CC3)cc2)C(=O)N1 [Compound 281]
Return: < 10 nM

Enquiry: # lookup: DC50 of O=C1CCC(c2c(F)cc(N3CCC(CN4CCN(c5ccc(-n6cc(-c7cc(Cl)cc(NS(=O)(=O)N8CCCC8)c7F)c(-c7ccncc7)n6)cc5)CC4)CC3)cc2F)C(=O)N1 (racemic) [Compound 387]
Return: < 10 nM

Enquiry: # lookup: DC50 of O=C1CCN(c2ccc(N3CCC(CN4CCN(c5ccc(-n6cc(-c7cc(Cl)cc(NS(=O)(=O)N8CC(F)C8)c7F)c(-c7ccncc7)n6)cc5)CC4)CC3)nc2)C(=O)N1 [Compound 368]
Return: < 10 nM

Enquiry: # lookup: DC50 of O=C1CC[C@H](c2ccc(N3CCC(CN4CCCN(c5ccc(-n6cc(-c7cc(Cl)cc(NS(=O)(=O)N8CCCC8)c7F)c(-c7ccncc7)n6)c(F)c5)CC4)CC3)cc2)C(=O)N1 [Compound 346]
Return: > 500 nM

Enquiry: # lookup: DC50 of O=C1CCN(c2ccc(N3CCC(CN4CCN(c5ccc(-n6cc(-c7cc(Cl)cc(NS(=O)(=O)N8CCCC8)c7F)c(-c7ccncc7)n6)nc5)CC4)CC3)cc2)C(=O)N1 [Compound 287]
Return: < 10 nM

Enquiry: # lookup: DC50 of O=C1CCN(c2ccc(N3CCC(CN4CCN(c5ccc(-n6cc(-c7cc(Cl)cc(NS(=O)(=O)N8CC(F)C8)c7F)c(-c7ccncc7)n6)c(F)c5)CC4)CC3)nc2)C(=O)N1 [Compound 369]
Return: 10 to 50 nM

Enquiry: # lookup: DC50 of CCN(C)S(=O)(=O)Nc1cc(Cl)cc(-c2cn(-c3ccc(N4CCN(CC5CCN(c6ccc(N7CCC(=O)NC7=O)cc6)CC5)CC4)cn3)nc2-c2ccncc2)c1F [Compound 311]
Return: 50 to 500 nM

Enquiry: # lookup: DC50 of O=C1CC[C@H](c2ccc(N3CCC(CN4CCN(c5ccc(-n6cc(-c7cc(F)cc(NS(=O)(=O)N8CC[C@@H](F)C8)c7F)c(-c7ccncc7)n6)nc5)CC4)CC3)nc2)C(=O)N1 [Compound 305]
Return: < 10 nM

* * *

target_or_test_system: BRAF D594G (Homo sapiens, UniProt P15056, D594G)
Construct: Horizon Discovery (HCT-116 BRAF−/− cells); host or cells: HCT-116 BRAF−/− cells, clone 63, lentiviral transduction
Sequence (P15056 whole entry D594G): as the sequence (P15056 whole entry G466V) above, with V466G, D594G counted along it
test_method_notes: BRAF HiBiT degradation assay, C-terminal HiBiT-tagged BRAF D594G overexpressed in HCT-116 BRAF−/− cells (clone 63), Nano-Glo HiBiT Lytic assay
Type: cell-based
conditions: BRAF D594G (Class 3), HCT-116 BRAF−/− cells; observed Dmax relative to DMSO control
measured_endpoint: Dmax

compound	assay_result
O=C1CC[C@H](c2ccc(N3CCC(CN4CCN(c5ccc(-n6cc(-c7cc(Cl)cc(NS(=O)(=O)N8CC[C@@H](F)C8)c7F)c(-c7ccncc7)n6)nc5)CC4)CC3)nc2)C(=O)N1 [Compound 297]	> 70%
C[C@@H]1CN(c2ccc(-n3cc(-c4cc(Cl)cc(NS(=O)(=O)N5CCCC5)c4F)c(-c4ccncc4)n3)c(F)c2)C[C@@H](C)N1CC1CCN(c2ccc(C3CCC(=O)NC3=O)cn2)CC1 (mixture of isomers) [Compound 382]	> 70%
CCCS(=O)(=O)Nc1cc(Cl)cc(-c2cn(-c3ccc(N4CCN(CC5CCN(c6ccc([C@H]7CCC(=O)NC7=O)cc6)CC5)[C@H](C)C4)cc3)nc2-c2ccncc2)c1F [Compound 275]	30 to 70%

Enquiry: # lookup: Dmax of O=C1CC[C@H](c2ccc(N3CCC(CN4CCN(c5ccc(-n6cc(-c7cc(Cl)cc(NS(=O)(=O)N8CCCC8)c7F)c(-c7ccncc7)n6)cc5)CC4)CC3)cc2)C(=O)N1 [Compound 282]
Return: 30 to 70%

Enquiry: # lookup: Dmax of C[C@@H]1CN(c2ccc(-n3cc(-c4cc(Cl)cc(NS(=O)(=O)N5CCCC5)c4F)c(-c4ccncc4)n3)nc2)CCN1CC1CCN(c2ccc(N3CCC(=O)NC3=O)cc2)CC1 [Compound 324]
Return: 30 to 70%

Enquiry: # lookup: Dmax of O=C1CCN(c2ccc(N3CCC(CN4CCN(c5ccc(-n6cc(-c7cc(Cl)cc(NS(=O)(=O)N8CC[C@@H](F)C8)c7F)c(-c7ccncc7)n6)cc5)CC4)CC3)nc2)C(=O)N1 [Compound 263]
Return: 30 to 70%

Enquiry: # lookup: Dmax of O=C1CC[C@H](c2ccc(N3CCC(CN4CCN(c5ccc(-n6cc(-c7cc(Cl)cc(NS(=O)(=O)N8CC[C@@H](F)C8)c7F)c(-c7ccncc7)n6)c(F)c5)CC4)CC3)nc2)C(=O)N1 [Compound 334]
Return: > 70%
